assayed.system: benzodiazepine receptor
assay.comment: affinity for the benzodiazepine receptor, [3H] flunitrazepam radio receptor binding (Squires and Braestrup, modified)
measurement.context: inhibition by 50% of specific binding of 0.6 nM [3H] flunitrazepam to rat forebrain membrane preparations
Description: The affinity of the compounds for the benzodiazepine receptor was assessed using the radioligand [^3 H] flunitrazepam and modifications of the original radio receptor binding method of Squires and Braestrup [Nature, Vol. 266 (1977) p. 732]. The values given in Table II are nanomolar concentrations of test drug which inhibited the specific binding of 0.6 nM [^3 H] flunitrazepam to rat forebrain membrane preparations by 50% (IC50 nM).
pIC50: −log10 of the molar value.
reported.metric: pIC50

Worked cases, pIC50 given:
compound	value.reported
C=CCn1c(OC)cc2nc(C(=O)c3ccccc3)cn2c1=O [Example 9]	6.30
C=CCn1c(SC)cc2nc(C(=O)c3ccccc3)cn2c1=O [Example 15]	6.92
COc1cc2nc(C(=O)c3ccccc3)cn2c(SC)n1 [Example 12]	6.90

A. CCn1c(SC)cc2nc(C(=O)c3ccccc3)cn2c1=O [Example 14]
B. COc1cc2nc(C(=O)c3ccccc3)cn2c(C)n1 [Example 4]
C. CSc1cc2nc(C(=O)c3ccccc3)cn2c(SC)n1 [Example 13]
// sort entries: pIC50, high to low Reply format: the labels, ordered as requested.
C, A, B
(C: 7.74, A: 6.85, B: 6.28)

---

assay.comment: Geller conflict, screening for anxiolytic activity (conflict method of Geller et al, modified)
Assay type: in vivo
measurement.context: po; read-out: GELLER CONFLICT MED (minimum effective dose at which there was an observed increase in shocks above control)
Procedure: Screening for anxiolytic activity was carried out by modifications of the conflict method of Geller et al [Psychopharmacologia, (1960), Vol. I, p. 482]. The values given in Table II are the minimum effective doses at which there was an observed increase in shocks above control (MED mg/kg po).
reported.metric: minimal effective dose (mg/kg)
Answer format: numeric, mg/kg implied, no suffix.

CCn1c(SC)cc2nc(C(=O)c3ccccc3)cn2c1=O 5

Here is another compound to look at.
# lookup: minimal effective dose of COc1cc2nc(C(=O)c3ccccc3)cn2c(C)n1
50

---

assayed.system: benzodiazepine receptor
assay.comment: affinity for the benzodiazepine receptor, [3H] flunitrazepam radio receptor binding (Squires and Braestrup, modified)
measurement.context: inhibition by 50% of specific binding of 0.6 nM [3H] flunitrazepam to rat forebrain membrane preparations
pIC50: −log10 of the molar value.
reported.metric: pIC50

Example cases with answers are listed next.
COc1cc2nc(C(=O)c3ccccc3)cn2c(OC)n1 6.00
CCOc1nc(OC)cc2nc(C(=O)c3ccccc3)cn12 6.05
CCn1c(OC)cc2nc(C(=O)c3ccccc3)cn2c1=O 5.70

I. CCc1nc(OC)cc2nc(C(=O)c3ccccc3)cn12
II. CCCn1c(OC)cc2nc(C(=O)c3ccccc3)cn2c1=O
Just tell me: smaller pIC50 value, I or II ? Give the label under which the chosen entry appears.
II
(II: 6.00, I: 6.67)

---

assay.comment: Geller conflict, screening for anxiolytic activity (conflict method of Geller et al, modified)
Format: in vivo
measurement.context: po; read-out: GELLER CONFLICT MED (minimum effective dose at which there was an observed increase in shocks above control)
Below is a list of entries, each paired with its recorded minimal effective dose value.
Give the value, in units of mg/kg, as a plain number.

Worked examples, 7 compounds total:
C=CCn1c(OC)cc2nc(C(=O)c3ccccc3)cn2c1=O 5
CCCn1c(OC)cc2nc(C(=O)c3ccccc3)cn2c1=O 10
CCn1c(OC)cc2nc(C(=O)c3ccccc3)cn2c1=O 2
C=CCn1c(SC)cc2nc(C(=O)c3ccccc3)cn2c1=O 50
COc1cc2nc(C(=O)c3ccccc3)cn2c(OC)n1 10
COc1cc2nc(C(=O)c3ccccc3)cn2c(SC)n1 5
CCc1nc(OC)cc2nc(C(=O)c3ccccc3)cn12 10

Lab note: next compound to report on.
So what does the record say about minimal effective dose for CSc1cc2nc(C(=O)c3ccccc3)cn2c(SC)n1 ?
50
